Below, each entry is listed with its recorded EC50.
# System: K12 E. coli (ATCC #25404)
# Cond: read-out: EC50 uM; E. coli; 3 h incubation, CFU enumeration
No end group written: not given here.
Give the number; µM is assumed, so skip it.

Substance	Target entity	EC50 [µM]
KRAKKFFKKLK-NH2 [ATRA-1A]	K12 E. coli (ATCC #25404)	0.659

Let's switch to this substance now.
Data request: Look up EC50 for this substance: KRFKKFFKKPK-NH2 [ATRA-1P]
Data returned: 4.76
